Ref: the OPERA property sets (Mansouri et al. 2018)

# logP values compiled below

Consider the following illustrative entries.
> print(dat)
                                   compound  data.value
1                            CCN(CC)C(=O)NN       -0.62
2  COc1ccccc1OC1OC(CO)C(O)C(O)C1O (centres undefined)       -1.04
3            COc1cc(Cc2cnc(N)nc2N)cc(I)c1OC        2.33

Returns the measured logP for the input compound. Input: O=C(O)COc1cc(F)cc(Cl)c1
2.2

Returns the measured logP for the input compound. Input: CSc1nncc(=O)n1N
0.38

Returns the measured logP for the input compound. Input: Cc1cc(NC(=O)NC(=N)N)ccc1Cl
2.19

Returns the measured logP for the input compound. Input: C=CCc1c(OCC)cc(Cc2cnc(N)nc2N)cc1OCC
3.08
